study.system: S100A4
test.name: FP; competitive
Kd reference
Enter your answer as a number in µM; do not include the unit.

Solved cases (3 shown):
MAATAAAVVAEEDTELRDLLVQTLENSGVLNRIKAELRAAVFLALEEQ [FOP (1-48) peptide] | 0.048
VLQTWLQDLLRRGLVRAAQ [TRPM4 (129-147) peptide] | 35
SEGLMNVLKKIYEDG [SIP (188-202) peptide] | 11

Then there is this binder:
// returns reported Kd for input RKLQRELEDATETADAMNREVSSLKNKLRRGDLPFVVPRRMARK [NMIIA (1894-1937) peptide]
0.0088
